- Method notes: First-in-human proof of concept study of oral branaplam in infants with Type 1 SMA: PK and safety
- Type: in vivo
- Run parameters: human, plasma; Type 1 SMA patients, oral, nominal dose range 6 to 60 mg/m^2; read-out: median time of maximum concentration (Tmax) in plasma
Measurement kind: Tmax

Which Tmax value is on record for `CC1(C)CC(Oc2ccc(-c3ccc(-c4cn[nH]c4)cc3O)nn2)CC(C)(C)N1` ?
2.97 to 4 h

---

- System: mHTT
- Method notes: Mutant and total HTT multiplex HTRF assay in Q48 HTT human embryonic stem cell line: mHTT
- Type: cell-based
- Run parameters: Q48 HTT hESC, 48 hours
Measurement kind: mHTT pIC50
Please reply with the number alone, leaving off any unit.

Which mHTT pIC50 value is on record for `CC1(C)CC(Nc2ccc(-c3cc4cc(C#N)ccc4s3)nn2)CC(C)(C)N1` ?
6.822

Which mHTT pIC50 value is on record for `CN(c1ccc(-c2cc3c(O)nccc3cc2O)nn1)C1CC(C)(C)NC(C)(C)C1` ?
7.161

Which mHTT pIC50 value is on record for `Cc1cc(-c2ccc(-c3nnc(N(C)C4CC(C)(C)NC(C)(C)C4)s3)c(F)c2)[nH]n1` ?
5.9315

Which mHTT pIC50 value is on record for `CC1(C)CC(Oc2ccc(-c3ccc(-n4cccn4)cc3O)nn2)CC(C)(C)N1` ?
7.004

Which mHTT pIC50 value is on record for `CN(c1ccc(-c2cc3cnn(C)c3cc2O)nn1)C1CC(C)(C)NC(C)(C)C1` ?
7.111

Which mHTT pIC50 value is on record for `Cc1ccc2cc(-c3ccc(N(C)C4CC(C)(C)NC(C)(C)C4)nn3)c(O)cc2n1` ?
6.8415

Which mHTT pIC50 value is on record for `CN(c1ccc(-c2c(O)cc(-c3ccn(C)c(=O)c3)cc2F)nn1)C1CC(C)(C)NC(C)(C)C1` ?
7.1895

Which mHTT pIC50 value is on record for `Cc1cc2cc(-c3ccc(N(C)C4CC(C)(C)NC(C)(C)C4)nn3)c(O)cc2c(C#N)n1` ?
7.4395

Which mHTT pIC50 value is on record for `COc1cc(-c2cnn(C)c2)cc(O)c1-c1ccc(N(C)C2CC(C)(C)NC(C)(C)C2)nn1` ?
7.22

Which mHTT pIC50 value is on record for `CN(c1nnc(-c2cc3c(cc2O)C(=O)CC3)s1)C1CC(C)(C)NC(C)(C)C1` ?
6.264

Which mHTT pIC50 value is on record for `Cc1cnc2cc(O)c(-c3ccc(N(C)C4CC(C)(C)NC(C)(C)C4)nn3)cc2n1` ?
6.8485

Which mHTT pIC50 value is on record for `Cc1cnc2cc(-c3ccc(N(C)C4CC(C)(C)NC(C)(C)C4)nn3)c(O)cc2c1` ?
7.2895

Which mHTT pIC50 value is on record for `CN(c1ccc(-c2cc3c(=O)n(C)ccc3cc2O)nn1)C1CC(C)(C)NC(C)(C)C1` ?
7.73

Which mHTT pIC50 value is on record for `Cn1ccc(-c2ccc(-c3ccc(OC4CC(C)(C)NC(C)(C)C4)nn3)c(O)c2)cc1=O` ?
7.0855

Which mHTT pIC50 value is on record for `COc1cc(-c2cn[nH]c2)cc(O)c1-c1ccc(N(C)C2CC(C)(C)NC(C)(C)C2)nn1` ?
6.698

Which mHTT pIC50 value is on record for `CN(c1ccc(-c2ccc(-c3ccnc(O)c3)cc2O)nn1)C1CC(C)(C)NC(C)(C)C1` ?
7.4855

Which mHTT pIC50 value is on record for `Oc1ccc2cc(-c3ccc(C4CCNCC4)nn3)c(O)cc2c1` ?
5.996

Which mHTT pIC50 value is on record for `CN1C[C@@H]2CN(c3ccc(-c4ccc(-c5cn[nH]c5)cc4O)nn3)C[C@@H]2C1` ?
7.0085

Which mHTT pIC50 value is on record for `COc1ccc2cc(-c3ccc(N(C)C4CC(C)(C)NC(C)(C)C4)nn3)c(O)cc2c1` ?
6.7085

Which mHTT pIC50 value is on record for `Cc1cnc2cc(-c3ccc(N(C)C4CC(C)(C)NC(C)(C)C4)nn3)c(O)cc2n1` ?
6.9735

Which mHTT pIC50 value is on record for `CN(c1nnc(-c2c(O)cc(-c3cn[nH]c3)cc2Cl)s1)C1CC(C)(C)NC(C)(C)C1` ?
7.4435

Which mHTT pIC50 value is on record for `Oc1cc(-c2cn[nH]c2)cc(F)c1-c1nnc(N2C[C@H]3CNC[C@H]3C2)s1` ?
7.1125

Which mHTT pIC50 value is on record for `CN(c1nnc(-c2cc3cc(C#N)ccc3s2)s1)C1CC(C)(C)NC(C)(C)C1` ?
6.137

Which mHTT pIC50 value is on record for `CN(c1nnc(-c2c(F)cc(-c3cn[nH]c3)cc2F)s1)C1CC(C)(C)NC(C)(C)C1` ?
6.861

Which mHTT pIC50 value is on record for `CN(c1ccc(-c2ccc(-c3cn[nH]c3)cc2O)nn1)[C@H]1C[C@]2(C)CC[C@](C)(C1)N2` ?
7.717

Which mHTT pIC50 value is on record for `CN(c1ccc(-c2cc3ccc(C#N)nc3cc2O)nn1)C1CC(C)(C)NC(C)(C)C1` ?
6.5945

Which mHTT pIC50 value is on record for `CNc1ccn(-c2ccc(-c3nnc(N(C)C4CC(C)(C)NC(C)(C)C4)s3)c(O)c2)n1` ?
6.917

Which mHTT pIC50 value is on record for `CN(c1ccc(-c2cc(Cl)c(-c3cn[nH]c3)cc2O)nn1)C1CC(C)(C)NC(C)(C)C1` ?
7.35

Which mHTT pIC50 value is on record for `Cc1cc2cc(O)c(-c3ccc(N(C)C4CC(C)(C)NC(C)(C)C4)nn3)cc2cn1` ?
7.08

Which mHTT pIC50 value is on record for `CN(c1ccc(-c2cc3c(C(N)=O)nccc3cc2O)nn1)C1CC(C)(C)NC(C)(C)C1` ?
6.801

Which mHTT pIC50 value is on record for `CC1(C)CC(Oc2ccc(-c3ccc(-c4cn[nH]c4)cc3O)nn2)CC(C)(C)N1` ?
7.2795

---

- Tested on: tHTT
- Method notes: Mutant and total HTT multiplex HTRF assay in Q48 HTT human embryonic stem cell line: tHTT
- Format: cell-based
- Run parameters: Q48 HTT hESC, 48 hours
- Method: The multiplex assay is performed in human embryonic stem cells (hESCs) which have been derived by Genea Biocells from human blastocysts of HD donors. […] These detection reagents are incubated with the cell lysate at room temperature for 4-6 hours before having their fluorescence quantified at 615 nm (donor) and 535 nm and 665 nm (acceptor 1 and 2 respectively). The donor/acceptor ratio between these signals indicates the relative quantities of mHTT and tHTT proteins. […]
Where tHTT pIC50 equals or exceeds 7, the correct label is condition met; where it does not, the label is condition not met.

Dear colleague, could you confirm whether `COc1ccc(-c2ccc(-c3ccc(N(C)C4CC(C)(C)NC(C)(C)C4)nn3)c(O)c2)cn1` has tHTT pIC50 at or above 7?
condition not met

Dear colleague, could you confirm whether `CN(c1ccc(-c2cc3ccc(C(N)=O)nc3cc2O)nn1)C1CC(C)(C)NC(C)(C)C1` has tHTT pIC50 at or above 7?
condition met

Dear colleague, could you confirm whether `CN(c1nnc(-c2ccc(-c3ccn(C)c(=O)c3)cc2O)s1)C1CC(C)(C)NC(C)(C)C1` has tHTT pIC50 at or above 7?
condition not met

Dear colleague, could you confirm whether `COc1cc(-c2sc(C)nc2C)ccc1-c1nnc(N(C)C2CC(C)(C)NC(C)(C)C2)s1` has tHTT pIC50 at or above 7?
condition not met

Dear colleague, could you confirm whether `CN(c1nnc(-c2ccc(-c3cn[nH]c3)cc2O)s1)C1CC(C)(C)NC(C)(C)C1` has tHTT pIC50 at or above 7?
condition met

Dear colleague, could you confirm whether `CN(c1ccc(-c2ccc(-c3ccn(C)c(=O)c3)cc2O)nn1)C1CC(C)(C)NC(C)(C)C1` has tHTT pIC50 at or above 7?
condition met

---

Exercise: for every item that follows, state its recorded tHTT pIC50.
- Tested on: tHTT
- Method notes: Mutant and total HTT multiplex HTRF assay in Q48 HTT human embryonic stem cell line: tHTT
- Assay type: cell-based
- Run parameters: Q48 HTT hESC, 48 hours
Please reply with the number alone, leaving off any unit.

Which tHTT pIC50 value is on record for `CN(c1nnc(-c2ccc(-c3cn[nH]c3)cc2F)s1)C1CC(C)(C)NC(C)(C)C1` ?
6.075

Which tHTT pIC50 value is on record for `Cc1ncc2cc(-c3ccc(N(C)C4CC(C)(C)NC(C)(C)C4)nn3)c(O)cc2n1` ?
6.7

Which tHTT pIC50 value is on record for `CN(c1ccc(-c2cc3ccncc3cc2O)nn1)C1CC(C)(C)NC(C)(C)C1` ?
6.6455

Which tHTT pIC50 value is on record for `Cc1nc2cc(-c3ccc(N(C)C4CC(C)(C)NC(C)(C)C4)nn3)c(O)cc2[nH]1` ?
6.753

Which tHTT pIC50 value is on record for `Oc1ccc2cc(-c3ccc(C4CCNCC4)nn3)c(O)cc2c1` ?
5.997

Which tHTT pIC50 value is on record for `CN(c1ccc(-c2cc3c(=O)nc[nH]c3cc2O)nn1)C1CC(C)(C)NC(C)(C)C1` ?
6.7485

Which tHTT pIC50 value is on record for `CN(c1ccc(-c2cc3ccccc3cc2O)nn1)C1CC(C)(C)NC(C)(C)C1` ?
6.8125

Which tHTT pIC50 value is on record for `Cc1cnc2cc(O)c(-c3ccc(N(C)C4CC(C)(C)NC(C)(C)C4)nn3)cc2n1` ?
6.778

Which tHTT pIC50 value is on record for `CN(c1ccc(-c2cc3cn(C)nc3cc2O)nn1)C1CC(C)(C)NC(C)(C)C1` ?
6.994

Which tHTT pIC50 value is on record for `CN(c1ccc(-c2cc3c(=O)n(C)ccc3cc2O)nn1)C1CC(C)(C)NC(C)(C)C1` ?
7.6555

Which tHTT pIC50 value is on record for `CC1(C)CC(Oc2ccc(-c3ccc(-n4cccn4)cc3O)nn2)CC(C)(C)N1` ?
6.9475

Which tHTT pIC50 value is on record for `CN(c1ccc(-c2ccc(-c3ccnc(O)c3)cc2O)nn1)C1CC(C)(C)NC(C)(C)C1` ?
7.4435

Which tHTT pIC50 value is on record for `CNc1ccn(-c2ccc(-c3nnc(N(C)C4CC(C)(C)NC(C)(C)C4)s3)c(O)c2)n1` ?
6.852

Which tHTT pIC50 value is on record for `Cc1cc2cc(-c3ccc(N(C)C4CC(C)(C)NC(C)(C)C4)nn3)c(O)cc2c(C#N)n1` ?
7.3875

Which tHTT pIC50 value is on record for `CN(c1ccc(-c2ccc(-c3cn[nH]c3)cc2O)nn1)[C@H]1C[C@]2(C)CC[C@](C)(C1)N2` ?
7.609

Which tHTT pIC50 value is on record for `CN(c1ccc(-c2c(O)cc(-c3ccn(C)c(=O)c3)cc2F)nn1)C1CC(C)(C)NC(C)(C)C1` ?
7.17

Which tHTT pIC50 value is on record for `Cc1cc(-c2ccc(-c3nnc(N(C)C4CC(C)(C)NC(C)(C)C4)s3)c(F)c2)[nH]n1` ?
6.01

Which tHTT pIC50 value is on record for `CN(c1nnc(-c2c(O)cc(-c3cn[nH]c3)cc2Cl)s1)C1CC(C)(C)NC(C)(C)C1` ?
7.353

Which tHTT pIC50 value is on record for `CC1(C)CC(Oc2ccc(-c3cc4ccc(O)cc4cc3O)nn2)CC(C)(C)N1` ?
7.121

Which tHTT pIC50 value is on record for `CCc1cnc2cc(O)c(-c3ccc(N(C)C4CC(C)(C)NC(C)(C)C4)nn3)cc2c1` ?
6.709

Which tHTT pIC50 value is on record for `CN(c1ccc(-c2cc3ccc(OCCC(C)(C)O)cc3cc2O)nn1)C1CC(C)(C)NC(C)(C)C1` ?
6.488

Which tHTT pIC50 value is on record for `Cc1cnc2cc(-c3ccc(N(C)C4CC(C)(C)NC(C)(C)C4)nn3)c(O)cc2c1` ?
7.424

Which tHTT pIC50 value is on record for `Cn1ccc(-c2ccc(-c3ccc(OC4CC(C)(C)NC(C)(C)C4)nn3)c(O)c2)cc1=O` ?
7.074

Which tHTT pIC50 value is on record for `Cc1cc(C2CC2)c2cc(-c3ccc(N(C)C4CC(C)(C)NC(C)(C)C4)nn3)c(O)cc2n1` ?
6.7095

Which tHTT pIC50 value is on record for `Cc1cc2cc(O)c(-c3ccc(N(C)C4CC(C)(C)NC(C)(C)C4)nn3)cc2cn1` ?
7.0835

Which tHTT pIC50 value is on record for `CCOc1cc(C)nc2cc(O)c(-c3ccc(N(C)C4CC(C)(C)NC(C)(C)C4)nn3)cc12` ?
6.534

Which tHTT pIC50 value is on record for `CN(c1nnc(-c2ccc(-c3cnn(C)c3)cc2O)s1)C1CC(C)(C)NC(C)(C)C1` ?
7.481

Which tHTT pIC50 value is on record for `CN(c1ccc(-c2cc(Cl)c(-c3cn[nH]c3)cc2O)nn1)C1CC(C)(C)NC(C)(C)C1` ?
7.389

Which tHTT pIC50 value is on record for `COc1cc(-c2cn[nH]c2)c(F)c(F)c1-c1nnc(N(C)C2CC(C)(C)NC(C)(C)C2)s1` ?
6.5835

Which tHTT pIC50 value is on record for `CN(c1nnc(-c2c(F)cc(-c3cn[nH]c3)cc2F)s1)C1CC(C)(C)NC(C)(C)C1` ?
6.7715

Which tHTT pIC50 value is on record for `CN(c1ccc(-c2cc3c(C(N)=O)nccc3cc2O)nn1)C1CC(C)(C)NC(C)(C)C1` ?
6.779

Which tHTT pIC50 value is on record for `CN(c1ccc(-c2ccc(C3=CCNCC3)cc2O)nn1)C1CC(C)(C)NC(C)(C)C1` ?
6.659
